Listed here: items and their measured EC50.
test system: Wnt pathway (Sp5-Luc reporter, TCF/LEF binding sites) in SW480 colon carcinoma cells; test: Screening assay for Wnt activity: Sp5-Luc reporter gene assay; type: cell-based, human; conditions: Homo sapiens; Sp5-Luc reporter, SW480 cells, 36 to 48 hours;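 further: firefly luciferase luminescence read in stably transduced SW480 cells carrying the Sp5 promoter reporter with eight TCF/LEF sites, compounds given in 0.1% DMSO final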

compound: CN1CC2(CC(C(=O)Nc3cc4cc(-c5cncn5C)ccc4cn3)C2)C1 [Compound 523]
EC50: 0.683 µM

compound: CN1CCC(N2CCC(C(=O)Nc3cc4cc(-c5cnn(C)c5)ccc4cn3)CC2)CC1 [Compound 331]
EC50: 2.99 µM

compound: Cn1cc(-c2ccc3cnc(NC(=O)CN4C[C@@H]5C[C@H]4CO5)cc3c2)cn1 [Compound 345]
EC50: 2.12 µM

compound: Cn1cc(-c2ccc3cnc(NC(=O)CN4CCCCC4)cc3c2)cn1 [Compound 115]
EC50: 2.4 µM

compound: CN1CCn2ncc(-c3ccc4cnc(NC(=O)C5CC(F)(F)C5)cc4c3)c2C1 [Compound 267]
EC50: 1.38 µM

compound: COC1CCN(CC(=O)Nc2cc3cc(-c4cnn(C)c4)ccc3cn2)CC1 [Compound 1077]
EC50: 5.19 µM

compound: Cc1nnc(-c2ccc3cnc(NC(=O)CN4CCCOCC4)cc3c2)s1 [Compound 1049]
EC50: 2.54 µM

compound: Cn1ncc(-c2ccc3cnc(NC(=O)C4CCOCC4)cc3c2)c1CO [Compound 984]
EC50: 2.99 µM

compound: CO[C@H]1CC[C@H](C(=O)Nc2cc3cc(-c4cncn4C)ccc3cn2)CC1 [Compound 528]
EC50: 1.15 µM

compound: Cn1cc(-c2ccc3cnc(NC(=O)CN4CCC5(CC4)CC5)cc3c2)cn1 [Compound 296]
EC50: 3.48 µM

compound: Cn1cc(-c2ccc3cnc(NC(=O)C4CCN(CC(C)(C)C)CC4)cc3c2)cn1 [Compound 78]
EC50: 1 µM

compound: Cc1ncc(-c2ccc3cnc(NC(=O)C4CC4)cc3c2)n1C [Compound 119]
EC50: 1.06 µM

compound: CC(C)CN1CCC(F)(C(=O)Nc2cc3cc(-c4cnn5c4CN(CCF)CC5)ccc3cn2)CC1 [Compound 1023]
EC50: > 10 µM

compound: Cn1cc(-c2ccc3cnc(NC(=O)[C@H]4CC[C@H](CN5CC(F)C5)CC4)cc3c2)cn1 [Compound 10]
EC50: 0.277 µM

compound: CN1CCN(CC(=O)Nc2cc3cc(-c4cn(C)nn4)ccc3cn2)CC1 [Compound 500]
EC50: 3.23 µM

compound: CN(CC(=O)Nc1cc2cc(-c3cnc4n3CCNC4)ccc2cn1)C1CCC1 [Compound 1031]
EC50: 3.97 µM

compound: Cn1cc(-c2ccc3cnc(NC(=O)CN4CCCC4)cc3c2)cn1 [Compound 284]
EC50: 1.87 µM

All figures here come from patent US10287267B2.
